Recorded measurements of CD8 IFNγ % positive, one per entry
tested_target: human Programmed Death-1 (PD-1) expressed on the cell surface (human, UniProt Q15116 25-288)
Sequence (Q15116 25-288): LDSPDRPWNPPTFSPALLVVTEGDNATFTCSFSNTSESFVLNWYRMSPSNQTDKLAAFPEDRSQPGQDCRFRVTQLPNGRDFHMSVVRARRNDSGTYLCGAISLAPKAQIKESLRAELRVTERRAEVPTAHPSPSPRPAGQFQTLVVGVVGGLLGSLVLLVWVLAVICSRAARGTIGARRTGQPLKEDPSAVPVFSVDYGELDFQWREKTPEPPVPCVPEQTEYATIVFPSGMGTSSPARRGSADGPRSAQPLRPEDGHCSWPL
assay_protocol: cell-based or functional assay
Use % positive as the unit, but write only the number.

>  <binder>
100388_D4VH3_100389_D4VK5 (antibody, V domains shown, Mouse variable regions; cloned into pFUSE-CHIg-mG1 (murine IgG1 Fc), expressed in HEK293) VH: EVQLQESGAELVRPGASVTLSCKASGYTFTDYEMHWVKQTPVHGLEWIGVIDPGTGGTAYNQKFKVKALLTADKSSNTAYMELRSLTSEDSAVYYCTSEKFGSNYYFDYWGQGTTLTVSS VL: DIVITQTPLSLPVSLGDQASISCRSSQTIVHSDGNTYLEWYLQKPGQSPKLLIYKVSNRFSGVPDRFSGSGSGTDFTLKISRVEAEDLGVYYCFQGSHVPLTFGAGTKLEIK

>  <measured_attribute>
CD8 IFNγ % positive

>  <units>
% positive

>  <test_result>
31.2

$$$$
>  <binder>
100244_C8VH3_100245_C8VK5 (antibody, V domains shown, Mouse variable regions; cloned into pFUSE-CHIg-mG1 (murine IgG1 Fc), expressed in HEK293) VH: EVQLQESGPELVRPGASVKMSCKASGYTFTSYWMHWVKQRPGQGLEWIGMIDPSNSETSLNQKFKDKATLNVDKSTNTAYMQLSSLTSEDSAVYYCARSRGNYAYEMDYWGQGTSVTVSS VL: DIVITQTTAIMSASPGEKVTLTCSASSSVSSNYLYWYQQRPGSSPKLWIYSTSNLASGVPARFSGSGSGTSYSLTISSMEAEDAASYFCHQWSSYPPTFGSGTKLEIK

>  <measured_attribute>
CD8 IFNγ % positive

>  <units>
% positive

>  <test_result>
19.9

$$$$

Okay, next one:
Item 100246_A10VH1_100247_A10VK3 (antibody, V domains shown, Mouse variable regions; cloned into pFUSE-CHIg-mG1 (murine IgG1 Fc), expressed in HEK293) VH: EVQLQESGPGLVKPSQSLSLTCTVTGYSITSDYAWNWIRQFPGNKLEWMGYITYSGSPTYNPSLKSQFSITRDTSKNQFFLQLNSLTTEDTATYYCARGLGGHYFDYWGQGTTLTVSS VL: DIVLTQSPDTLSVTPGDRVSLSCRASQSISDYLHWYQQKSHESPRLLIKYASQSISGIPSRFSGSGSGSDFTLSINSVEPEDVGVYYCQNGHSYPYTFGGGTKLELK has what recorded CD8 IFNγ % positive? 26.2

Value source: patent US20160251436A1
